- System: HL-60(TB) leukemia
- Assay Overview: NCI tumour cell line growth inhibition, 48 h
Result Type: TGI

Here's what some known entries look like.
INSERT INTO assay_data (compound, result) VALUES
  ('CC12CCCC3(CC(=O)C(C)(C)C3C(=O)C1)C2 (stereo unspecified)', '> 100 µM'),
  ('C=CC(OCC)(OCC)OCC', '> 100 µM'),
  ('COc1ccc(-c2cc(-c3ccccc3)[nH]c(=S)c2C#N)cc1', '> 100 µM');

Dear colleague, could you please provide TGI for the compounds listed below?
1. CCOC(=O)C1SC(=Nc2ccc(Cl)cc2)N=C1C (stereo unspecified)
2. CC(=O)N1CCC2(c3ccccc3N(C(C)=O)C2c2ccc(O)cc2)C1C(=O)O (stereo unspecified)

Found:
["55.9 µM", "> 100 µM"]

Lookup: So what's the measured TGI for this one? O=C(N[C@@H](C[Se][Se]C[C@H](NC(=O)c1ccc(Br)cc1F)C(=O)O)C(=O)O)c1ccc(Br)cc1F
Found: > 100 µM

====

- Tested on: OVCAR-8 ovarian
- Assay Overview: NCI tumour cell line growth inhibition, 48 h; in the data active means GI50 below about 0.43 µM; inactive means the rest
Write down one outcome, taken from active, inactive

Consider the worked cases shown below.
INSERT INTO measurements (compound, class) VALUES
  ('O=C(N[C@@H](C[Se][Se]C[C@H](NC(=O)c1ccc(Br)cc1F)C(=O)O)C(=O)O)c1ccc(Br)cc1F', 'inactive'),
  ('C=C1C(=O)O[C@H]2[C@H]1CC/C(C=Nc1c(N)cc(C(F)(F)F)cc1Br)=C\CC[C@@]1(C)O[C@@H]21', 'inactive');

Lookup: Which outcome was entered for the compound O=S(=O)(CCCl)c1ccc(Cl)cc1 in this test?
Found: inactive

Lookup: Which outcome was entered for the compound C=C1C[C@@H]2CC[C@@]34C[C@H]5O[C@H]6[C@@H](O3)[C@H]3O[C@H](CC[C@@H]3O[C@H]6[C@@H]5O4)CC(=O)C[C@@H]3[C@@H](OC)[C@@H](C[C@H](O)CN)O[C@H]3C[C@H]3O[C@@H](CC[C@@H]1O2)C[C@@H](C)C3=C in this test?
Found: active

Lookup: Which outcome was entered for the compound C=C(CN(C)C)C(=O)c1ccccc1[N+](=O)[O-] in this test?
Found: inactive

Lookup: Which outcome was entered for the compound C(=N\Nc1nnn(Cc2ccccc2)n1)/c1ccccc1 in this test?
Found: inactive

Lookup: Which outcome was entered for the compound OC(c1cc2ccc(C(F)(F)F)cc2c2cc(C(F)(F)F)ccc12)C1CCCCN1 (stereo not drawn) in this test?
Found: inactive

Lookup: Which outcome was entered for the compound Cn1cc(C2=C(c3cn(C4CCN(Cc5ccccn5)CC4)c4ccccc34)C(=O)NC2=O)c2ccccc21 in this test?
Found: inactive

====

- System: SF-268 CNS
- Assay Overview: NCI tumour cell line growth inhibition, 48 h; in the data active = GI50 below about 0.43 µM; inactive = the rest
Write down one outcome, taken from 1.0 = active, 0.0 = inactive

Consider the worked cases shown below.
INSERT INTO assay_data (molecule, class) VALUES
  ('CCOC(=O)/C(C#N)=C\C=C(/Cl)c1ccc(Cl)cc1', 0.0),
  ('C=C(CN(C)C)C(=O)c1ccccc1[N+](=O)[O-]', 0.0),
  ('COC(=O)C1(C)Cc2cc(OC(C)=O)c(OC(C)=O)cc2N1 (stereo unspecified)', 0.0),
  ('Nc1ccc(/C=C/C(=O)NCc2cc3cc(-c4ccc(C(=O)N5CCC(F)(F)CC5)cc4)cc(-c4ccc(F)cc4)c3o2)cn1', 0.0),
  ('O=C(N/N=C/c1ccccc1O)c1ccccc1', 0.0),
  ('COc1ccc2c(c1)/C(=C/c1cc(OC)c(OC)c(OC)c1)C(=O)N2', 1.0),
  ('COc1ccc(CN2C3CC2CN(c2ccc(-c4cc(OCC(C)(C)O)cn5ncc(C#N)c45)cn2)C3)cn1', 0.0),
  ('CNC(=O)c1nn(C)c2c1C(C)(C)Cc1cnc(Nc3ccc(N4CCN(C)CC4)cc3)nc1-2', 0.0);

Lookup: Which outcome was entered for the molecule O=C1OCC2=C1C(c1ccccc1)c1cc3c(cc1N2CCO)OCO3 (stereo unspecified) in this test?
Found: 0.0

Lookup: Which outcome was entered for the molecule CN(C)C(=O)O[C@H]1CN[C@H](C#Cc2cc3ncnc(Nc4ccc(OCc5cccc(F)c5)c(Cl)c4)c3s2)C1 in this test?
Found: 0.0

Lookup: Which outcome was entered for the molecule C=C1C[C@@H]2CC[C@@]34C[C@H]5O[C@H]6[C@@H](O3)[C@H]3O[C@H](CC[C@@H]3O[C@H]6[C@@H]5O4)CC(=O)C[C@@H]3[C@@H](OC)[C@@H](C[C@H](O)CN)O[C@H]3C[C@H]3O[C@@H](CC[C@@H]1O2)C[C@@H](C)C3=C in this test?
Found: 1.0

====

- Tested on: CAKI-1 renal
- Assay Overview: NCI tumour cell line growth inhibition, 48 h
Please mark Yes if the recorded TGI is equal to or greater than 30 µM, and No if it falls below.

Consider the worked cases shown below.
INSERT INTO results (molecule, class) VALUES
  ('O=c1c2cc(Br)ccc2nc(CCl)n1-c1ccc(O)c([N+](=O)[O-])c1', 'Yes'),
  ('COc1ccc(C2c3cc4c(cc3OC(N3CCOCC3)C2C)OCO4)c(OC)c1OC (configuration not stated)', 'No'),
  ('O=C(/C=C/c1ccccc1)c1ccc(NCc2nc3ccccc3[nH]2)cc1', 'No');

Lookup: For this molecule, is measured TGI 30 µM or higher? OC(c1cc2ccc(C(F)(F)F)cc2c2cc(C(F)(F)F)ccc12)C1CCCCN1 (configuration not stated)
Found: No

Lookup: For this molecule, is measured TGI 30 µM or higher? O=C(c1ccncc1)C1C(=O)c2ccccc2C1C1(O)c2ccccc2CC1C(O)c1ccncc1 (configuration not stated)
Found: Yes

Lookup: For this molecule, is measured TGI 30 µM or higher? O=[N+]([O-])c1ccc(Sc2c3ccccc3nc3cc(Cl)ccc23)cc1
Found: Yes

Lookup: For this molecule, is measured TGI 30 µM or higher? COc1cc2c(c(O)c1OC)C(=O)C(Cc1ccc(O)cc1)CO2 (configuration not stated)
Found: Yes

Lookup: For this molecule, is measured TGI 30 µM or higher? COc1cc(NCCCCCCCNC(C)C)c2nccc(C)c2c1
Found: No

Lookup: For this molecule, is measured TGI 30 µM or higher? COC(=O)/C(C#N)=C(/NCCN)Nc1ccccc1
Found: Yes

====

- Test system: UO-31 renal
- Assay Overview: NCI tumour cell line growth inhibition, 48 h
Please mark MET if the recorded TGI is equal to or greater than 10 µM, and NOT MET if it falls below.

INSERT INTO assay_data (compound, class) VALUES
  ('COc1ccc(C(=O)NCCN(C)C)c2nc3ccccc3nc12', 'MET'),
  ('COc1ccc2c(c1)/C(=C/c1cc(OC)c(OC)c(OC)c1)C(=O)N2', 'MET'),
  ('COc1ccc(NC(=S)NC(=O)c2ccc3c(c2)Sc2ccccc2O3)c([N+](=O)[O-])c1', 'MET');

Lookup: For this compound, is measured TGI 10 µM or higher? COc1c(O)c2c(=O)cc(OC)c3c4c(OC)cc(=O)c5c(O)c(OC)c6c(c(c1C(C(C)O)C6C(C)O)c23)c54 (centres undefined)
Found: NOT MET

Lookup: For this compound, is measured TGI 10 µM or higher? CCCCCCCCCCCCCCCC[N+]1(C)CCOCC1
Found: MET

====

Assignment: determine reported GI50 for the given compounds.
- System: M14 melanoma
- Assay Overview: NCI tumour cell line growth inhibition, 48 h

Here's what some known entries look like.
INSERT INTO results (compound, target_system, result_type, result) VALUES
  ('O=C1OCC2=C1C(c1ccccc1)c1cc3c(cc1N2CCO)OCO3 (stereo not drawn)', 'M14 melanoma', 'GI50', '1920 nM'),
  ('CCCCn1c(-c2ccc(C(=O)O/N=C(\N)c3ccc4c(c3)OCO4)cc2)nc(-c2ccccc2)c1-c1ccccc1', 'M14 melanoma', 'GI50', '2850 nM'),
  ('CC(C)(C)C(=O)[CH-]C(=O)C(C)(C)C.CC(C)(C)C(=O)[CH-]C(=O)C(C)(C)C.CN(C)c1ccc([O-])cc1.CN(C)c1ccc([O-])cc1.[Ti+4]', 'M14 melanoma', 'GI50', '60800 nM');

Dear colleague, could you please provide GI50 for the compounds listed below?
1. COc1ccc(/C(=N\NC(=S)NN)C(c2ccc(OC)cc2)C2C(=O)Oc3ccccc32)cc1 (stereo not drawn)
2. COc1ccc(C(=O)c2ccc([As]=O)cc2)cc1 (stereo not drawn)
3. O=[N+]([O-])c1ccc(Sc2c3ccccc3nc3cc(Cl)ccc23)cc1
4. C[C@H]1CCCC(O)C(O)[C@@H]2C[C@H](O[Si](C)(C)C(C)(C)C)C[C@H]2[C@H](O[Si](C)(C)C(C)(C)C)C(O)C(O)C(=O)O1 (stereo partly drawn)

Found:
1: > 100000 nM; 2: 62.9 nM; 3: > 100000 nM; 4: 39100 nM

Lookup: So what's the measured GI50 for this one? Nc1ccc(/C=C/C(=O)NCc2cc3cc(-c4ccc(C(=O)N5CCC(F)(F)CC5)cc4)cc(-c4ccc(F)cc4)c3o2)cn1
Found: 459 nM
